Assay: Cytotoxicity assay in MT-4 cells
Format: cell-based
Details: human; uninfected MT-4 cells, 5 days incubation, Cell Titer Glo; read-out: MT4 CC50
MEASUREMENT_NAME: CC50 at 5 days (µM)
Write it as a number; the unit µM goes unstated.

Ask: Field request: CC50 at 5 days | item: CC1=NO[C@@]2(CC[C@H](C)N3C[C@H]2n2cc(C(=O)NCc4ccc(F)cc4F)c(=O)c(OCOC(=O)OCCCCC(C)C)c2C3=O)C1
Reply: 23.1

Ask: Param item = CC1=NO[C@@]2(CC[C@H](C)N3C[C@H]2n2cc(C(=O)NCc4ccc(F)cc4F)c(=O)c(OC(=O)OCCCCC(C)C)c2C3=O)C1 ; retrieve measured CC50 at 5 days.
Reply: 17.2

Ask: For CC1=NO[C@@]2(CC[C@H](C)N3C[C@H]2n2cc(C(=O)NCc4ccc(F)cc4F)c(=O)c(OC(=O)CCC(C)C)c2C3=O)C1 , what is its reported CC50 at 5 days?
Reply: 23.1

Ask: Reported CC50 at 5 days, compound CC1=NO[C@@]2(CC[C@H](C)N3C[C@H]2n2cc(C(=O)NCc4ccc(F)cc4F)c(=O)c(OC(=O)C4CCCC4)c2C3=O)C1 : ____
Reply: 24.4

Ask: Fill in the blank: the reported CC50 at 5 days of CCCCCCC(=O)Oc1c2n(cc(C(=O)NCc3ccc(F)cc3F)c1=O)[C@@H]1CN(C2=O)[C@@H](C)CC[C@]12CC(OC)=NO2 is ____.
Reply: 25.7

Ask: Query: CC50 at 5 days; subject: CC1=NO[C@@]2(CC[C@H](C)N3C[C@H]2n2cc(C(=O)NCc4ccc(F)cc4F)c(=O)c(OCOC(=O)OCCCCCCCC(C)C)c2C3=O)C1
Reply: 36.7

###

Experiment: Cytotoxicity assay in MT-4 cells
Assay type: cell-based
Conditions: human; uninfected MT-4 cells, 5 days incubation, Cell Titer Glo; read-out: MT4 CC50
MEASUREMENT_NAME: CC50 at 5 days (µM)
Write it as a number; the unit µM goes unstated.

Ask: Value lookup for CC50 at 5 days; key = CC(=O)OCOc1c2n(cc(C(=O)NCc3ccc(F)cc3F)c1=O)[C@@H]1CN(C2=O)[C@@H](C)CC[C@]12CC(C)=NO2
Reply: 19.9

Ask: Given CCCCCCCOC(=O)OCOc1c2n(cc(C(=O)NCc3ccc(F)cc3F)c1=O)[C@@H]1CN(C2=O)[C@@H](C)CC[C@]12CC(OC)=NO2 , state its recorded CC50 at 5 days.
Reply: 9.98

Ask: Which CC50 at 5 days reading was recorded for the molecule CCCCCCCCCOC(=O)Oc1c2n(cc(C(=O)NCc3ccc(F)cc3F)c1=O)[C@@H]1CN(C2=O)[C@@H](C)CC[C@]12CC(C)=NO2 ?
Reply: 10.2

Ask: Name the recorded CC50 at 5 days for CC1=NO[C@@]2(CC[C@H](C)N3C[C@H]2n2cc(C(=O)NCc4ccc(F)cc4F)c(=O)c(OCOC(=O)OCC(C)C)c2C3=O)C1 .
Reply: 15.5

Ask: // CC50 at 5 days lookup, key: CCCCCCCCOC(=O)Oc1c2n(cc(C(=O)NCc3ccc(F)cc3F)c1=O)[C@@H]1CN(C2=O)[C@@H](C)CC[C@]12CC(OC)=NO2
Reply: 23.5
